Quick reference: Activity of the listed items.
# target_entity: Dual specificity mitogen-activated protein kinase kinase 7 (Homo sapiens) (UniProt O14733)
# Sequence (O14733 whole entry, the tested form may be a part): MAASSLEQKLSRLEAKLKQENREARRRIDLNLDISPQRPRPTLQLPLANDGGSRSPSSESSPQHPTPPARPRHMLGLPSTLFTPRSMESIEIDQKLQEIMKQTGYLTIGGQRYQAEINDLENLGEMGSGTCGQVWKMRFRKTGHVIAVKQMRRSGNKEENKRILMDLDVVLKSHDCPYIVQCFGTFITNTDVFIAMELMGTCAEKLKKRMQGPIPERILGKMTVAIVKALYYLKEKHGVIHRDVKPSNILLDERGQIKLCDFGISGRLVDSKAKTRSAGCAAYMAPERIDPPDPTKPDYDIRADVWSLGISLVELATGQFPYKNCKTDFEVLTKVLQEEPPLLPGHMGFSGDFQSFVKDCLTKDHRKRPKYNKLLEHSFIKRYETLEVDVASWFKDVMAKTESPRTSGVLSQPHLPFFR
# assay_summary: Binding affinity to wild type full length human MKK7 (M1 to R419 residues) expressed in mammalian expression system assessed as residual activity at 100 nM measured by Kinomescan assay
readout_label: Activity (%)

>>> recorded_measurement("O=C(c1c(F)ccc(NS(=O)(=O)c2ccccc2)c1F)c1c[nH]c2ncc(-c3ccc(Cl)cc3)cc12")
83
>>> recorded_measurement("O=C(c1c(F)ccc(NS(=O)(=O)Cc2ccc(F)cc2)c1F)c1c[nH]c2ncc(-c3ccc(Cl)cc3)cc12")
100
>>> recorded_measurement("CCCS(=O)(=O)Nc1ccc(F)c(C(=O)c2c[nH]c3ncc(-c4ccc(F)cc4Cl)cc23)c1F")
100
>>> recorded_measurement("CCCS(=O)(=O)Nc1ccc(F)c(C(=O)c2c[nH]c3ncc(-c4ccc5c(c4)OCO5)cc23)c1F")
90

====

# target_entity: Mitogen-activated protein kinase kinase kinase 20 (Homo sapiens) (UniProt Q9NYL2)
# Sequence (Q9NYL2 2-800 limits assumed): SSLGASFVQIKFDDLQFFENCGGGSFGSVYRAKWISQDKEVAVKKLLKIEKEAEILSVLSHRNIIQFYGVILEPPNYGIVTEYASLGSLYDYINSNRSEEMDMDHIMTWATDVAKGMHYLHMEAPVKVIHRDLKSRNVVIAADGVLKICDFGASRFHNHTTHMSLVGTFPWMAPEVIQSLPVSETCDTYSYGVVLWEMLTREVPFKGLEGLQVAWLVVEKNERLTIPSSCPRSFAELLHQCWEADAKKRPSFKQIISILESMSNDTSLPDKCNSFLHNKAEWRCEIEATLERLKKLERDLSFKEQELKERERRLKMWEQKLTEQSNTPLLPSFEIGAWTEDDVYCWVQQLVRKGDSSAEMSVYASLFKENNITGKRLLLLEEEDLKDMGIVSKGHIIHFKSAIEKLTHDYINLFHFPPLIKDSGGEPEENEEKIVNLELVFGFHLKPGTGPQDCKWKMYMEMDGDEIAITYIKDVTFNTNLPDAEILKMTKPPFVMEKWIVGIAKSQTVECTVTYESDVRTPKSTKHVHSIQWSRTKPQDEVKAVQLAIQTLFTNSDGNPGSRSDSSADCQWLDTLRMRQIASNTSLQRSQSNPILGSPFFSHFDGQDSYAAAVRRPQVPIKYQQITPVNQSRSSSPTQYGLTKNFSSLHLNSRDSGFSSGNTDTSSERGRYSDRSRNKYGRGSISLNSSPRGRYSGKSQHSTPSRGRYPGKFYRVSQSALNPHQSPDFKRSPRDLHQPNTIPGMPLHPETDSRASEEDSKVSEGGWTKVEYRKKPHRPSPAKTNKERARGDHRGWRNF
# assay_summary: Binding affinity to wild type partial length human ZAK (M1 to L331) expressed in bacterial expression system assessed as residual activity at 100 nM measured by Kinomescan assay
Quick reference: Activity of the listed items.
readout_label: Activity

>>> recorded_measurement("CCCS(=O)(=O)Nc1ccc(F)c(C(=O)c2c[nH]c3ncc(-c4ccccc4OC)cc23)c1F")
"16%"
>>> recorded_measurement("CCCS(=O)(=O)Nc1cccc(C(=O)c2c[nH]c3ncc(-c4ccc(Cl)cc4)cc23)c1Cl")
"68%"
>>> recorded_measurement("O=C(c1c(F)ccc(NS(=O)(=O)Cc2ccccc2F)c1F)c1c[nH]c2ncc(-c3ccc(Cl)cc3)cc12")
"23%"
>>> recorded_measurement("COCCS(=O)(=O)Nc1ccc(F)c(C(=O)c2c[nH]c3ncc(-c4ccc(Cl)cc4)cc23)c1F")
"58%"

====

# target_entity: Dual specificity mitogen-activated protein kinase kinase 7 (Homo sapiens) (UniProt O14733)
# assay_summary: Binding affinity to wild type full length human MKK7 (M1 to R419 residues) expressed in mammalian expression system assessed as residual activity at 100 nM measured by Kinomescan assay
readout_label: Activity (%)

>>> recorded_measurement("CCCCS(=O)(=O)Nc1ccc(F)c(C(=O)c2c[nH]c3ncc(-c4ccc(Cl)cc4)cc23)c1F")
100
>>> recorded_measurement("CCCS(=O)(=O)Nc1ccc(F)c(C(=O)c2c[nH]c3ncc(-c4cccc(OC)c4)cc23)c1F")
100
>>> recorded_measurement("O=C(c1c(F)ccc(NS(=O)(=O)CCCF)c1F)c1c[nH]c2ncc(-c3ccc(Cl)cc3)cc12")
100
>>> recorded_measurement("CCCS(=O)(=O)Nc1ccc(F)c(C(=O)c2c[nH]c3ncc(-c4cncnc4)cc23)c1F")
81
>>> recorded_measurement("C#Cc1cnc2[nH]cc(C(=O)c3c(F)ccc(NS(=O)(=O)CCC)c3F)c2c1")
100
